# assay_remarks: yeast display, Sf9 membrane polyspecificity reagent, FACS + sequencing; frameworks hold sequencing errors
quantity_measured: polyreactivity (PSR sort gate)

QVQLVESGGGLVQAGGSLLLSCAASGSTFAPYAMAWYRQAPRKERELVATISASGGTTYYADSVKGRFTISRDNAKNTVYLQMNSLKPEDTAVYYCAKRRVWWPAHRSYLYASEFGYWGQGTQVTVSS = low polyreactivity
QVQLVESGRGLVQAGGSLRLSCAASGITCPVNVMGWYRQAPGKERELVAAISTSGGSTYYADSVKGRFTISRDNAKNTVYLQMNSLKPEDTAVYYCARQYIRSSYGYWGQGTQVTVSS = low polyreactivity
QVQLVESGGCLVQAGGSLRLSCAASGSIFSAYAMGWYRQAPGKERELVAGITSSGDSTYYADSVKGRFTISRDKAKNTVYLQMNSLKPEDTAVYYCNRVLGGVPFDHWGQGTQVTVSS = low polyreactivity
QVKLVESGGGLVQAGGSLRLSCAASGFIFRGYAMGWYRQAPGKERELVAAINYSGGSTYYADSVKGRFTISRDYAKNTVYLQMNSAKPEYTAVYYCNALGLRYYEYDYWGQGTQVNVSS = low polyreactivity
QVQHVESGGGLFQAGGSLRLSCAASGQNFRPYALGWDRQAPGKERELVAAIRWSDDSTYFAVSVKGRFTILRDNAKNTVYLQLNSLKPEDTAVYYCNARWWYPTYYYWGQGSQVTVSS = high polyreactivity
QVQLVESGGGLVQAGGSLRLSCAASGFIFRRNAMGWYRQAPGKERELVATIRASGGRTYYADSVKGRFTISRDNAKNTVYLQMNSLKPEDTAVYYCNKRGGYYGSPNYDYWGQGTQVTVSS = high polyreactivity
QVQLVESGGGLVQAGGSLRLSCAASGFTFPDYAMGWYRQAPGKERELVAAISSDGSTYYADSVKGPFTISRDNAKNTVYLQMNSLKPEDTAVYYCAAYVVWLYGDDYWGQGTQVTVSS = low polyreactivity
QVQLVESGGGLVQAGGSLRLSCAASGRILYDYDMGWYRQAPGKERELVATISRGGGTNYADSVKGRFTISRDNAKNNVYLQMNSLKPEDTAVYYCAAYYSSDGDYWGQGTQVTVSS = low polyreactivity

// polyreactivity (PSR sort gate) lookup, key: `QVQLVESGGGLVQAGGSLRLSCAASGSTFIVYAMGWYRQAPGKERELVASITWRGGSTYYADSVKGRFTISRDNAKNTVYFQMNSLKPEDTAVYYCARGYETTNYQKFYITDDGDYWGQGTQVTVSS`
low polyreactivity

Any idea what its polyreactivity (PSR sort gate) is? The sequence is `QVQLVESGGGLVQAGGSLRLSCAASGYTFGWYAMGWYRQAPGTERELVAGISSAGSTNYADSVKGRFTISRDNAKNTVYLQMNSLKPEDTAVYYCARDKWGLRYAPTVDYWGQGTQLTVSS`
high polyreactivity

Name the recorded polyreactivity (PSR sort gate) for `QVQLVESGGGLVQAGGSLRLSCAASGTFIGYAMGWYRQAPGKERELVAAIDVSGGSTYYADSVKGRFTISRDNAKNTVYLQMNSLKPEDTAVYYCATDRGPEVVLYDYWGHGTQVTVSS` .
low polyreactivity

----------
# assay_remarks: yeast display, Sf9 membrane polyspecificity reagent, FACS + sequencing; frameworks hold sequencing errors
quantity_measured: polyreactivity (PSR sort gate)

QVQLVESGGGLVQAGGSLRLSCAASGRTFYKNTMGWYRQAPGKERELVATITRRGGTTYYADSVKGRFTISRDNAKNTVYLQMNSLKPEDTAVYYCAKDASTEKYDYWGQGTQVTVSS = low polyreactivity
QVQRVESGGGLVQAGGSLRLSCAASGSIFPRYAMGWYRQAPGKEREMVATISSGGSTYYADSVKGRFTISRDNAKNTVYLQMNSLKPEHTAVYYCAARKRPYTVINGMDYWGQGTQVTVSS = low polyreactivity
QVQLVESGGGLVQAGGSLRLSSAASGRMFHFNAMGWYRQARGKERELVARITFSGGSTYYADSVKGRFTISRDNAKNTVYLQMNSLKPEDTAVYYCAVDAPPIFYEGGDYWGQGTQVTVSS = low polyreactivity
QVQLVESGGGLVQAGGSLRLSCAASGGIFYLNAMGWYREAPGKERELVAAISSGVSTYYADSVKGRFTISRDNAKNTVYLQMNSLKPEDTAVYYCNADYNYPAWVGSWWDYDYWGQGTQVTVSS = low polyreactivity
QVQLVESGGGLVQAGGSLRLSCAASGFTQEDYTMGWYRQAPGQERELVARITSGGSTNYADSVKGRFTISRDNGKNTDYLQMNSLKADETAVYYCNARYAWINMDYWGQGTQVTVSS = low polyreactivity

Which polyreactivity (PSR sort gate) value is on record for `QVQLVESGGGLVQAGGSLRLSCAASGSIFRRNPMGWYRQAPGKESELVAAISSSGGSTYYADSVKGGFTISRDIAKNTFYLQMNSVKPEDTAVYYCAARFGPQYRFDYWGQGTQVTVSS` ?
high polyreactivity

Look up polyreactivity (PSR sort gate) for this sequence: `QVQLVESGGGLVQAGGSLRLSCAASGGTFLYYMGWYRQAPGKERELVAAITFSGGSTYYADSVKGRFTISRDNAKNTVYLQMNSLKPEDTAVYYCAAGWYDWPKYLLSVYTYYLYDSWGQGTQVTVSS`
low polyreactivity

State the recorded polyreactivity (PSR sort gate) for this entry: `QVQLVESGGGLVQAGGSLRLICAASGYTFGGYAMGWYRQAPGKERVLVAAISTDGDSTFYADSVKGRFTISRDNAKNTVYLQMNSLKPEDTAVYYCAASVNTGSVTEYDYWGQGTQVTVSS`
low polyreactivity

Which polyreactivity (PSR sort gate) is listed for `QVQLVESGGGLVQAGGSLRLSCAASGSTFSKNAMGWYRQAPGKERELVAAIRSRGGSTYYADSVKGRFTISRDNAKNTVYLQMNSLKPEDTAVYYCNKVRAYEGDYWGQGTQVTVTS` ?
high polyreactivity

Which polyreactivity (PSR sort gate) is listed for `QVQLVESGVGLVQAGGSLRLICGASGFTFDYNSMVWYRQAPGKERELVAAISASGGSTYYADSVKGRFTISRDNAKNTVYLQMKSLKPEDTAVYYCNAGRVTRRDTFDYWGQGTQVTVSS` ?
high polyreactivity
